# System name: X-box-binding protein 1 (Homo sapiens)
# Test: ATG_Xbp1_CIS: Attagene CIS-FACTORIAL HepG2 Assay for human X-box Binding Protein 1 (XBP1) (AID 2282972)
# Condition: HepG2 XBP1 cis-element reporter, Attagene multiplex; actives raise or lower the signal
Activity calls are given as the source filed them. Rule for the calls: active = hit-call score of the fitted dose curve at least 0.9, where 1 is the maximum; inactive = score below 0.9.
Select the correct class. Options are active, inactive and nothing else.

Query: Identify the outcome logged in this assay for the compound shown: CCO[Si](CCC1CCC2OC2C1)(OCC)OCC (stereo not drawn)
Response: inactive

Query: Just curious, what result did `CC(C)(C)c1ccc(CCC=O)cc1` get here?
Response: inactive

Query: Please state the recorded outcome for this compound: `Brc1cc(Br)c(Oc2c(Br)cc(Br)c(Br)c2Br)cc1Br`
Response: inactive

Query: // return assay outcome for `FC(F)(F)C(F)(F)C(F)(F)C(F)(F)I`
Response: inactive

Query: # lookup: test call for `NS(=O)(=O)O`
Response: inactive

Query: Please let me know the test result on file for `CC(=O)Nc1ccc(S(N)(=O)=O)cc1` .
Response: inactive

Query: Which outcome was assigned to `CC(C)(O)C(=O)c1ccccc1` in this test?
Response: inactive

Query: Which outcome was assigned to `CCCCCCCCCCCC(=O)NCCCN(C)C` in this test?
Response: active

Query: Dear all, I need the recorded test outcome for `Oc1cc2ccccc2cc1O` , thank you.
Response: inactive

Query: Outcome logged for `N=C(N)c1ccc(OCCCCCOc2ccc(C(=N)N)cc2)cc1` in this assay:
Response: active

Query: Tell me the recorded outcome of this test for CCCCCCCCC1CCC(=O)O1 (stereo not drawn) .
Response: inactive

Query: // return assay outcome for CCCCCCCCCC=CCC1CC(=O)OC1=O (stereo not drawn)
Response: inactive

Query: Hi, sorry to bother you, what did the test record for `C=CC(=O)OCC(CO)(COCC(COC(=O)C=C)(COC(=O)C=C)COC(=O)C=C)COC(=O)C=C` ?
Response: active

Query: For this compound, state the assay outcome: `CN(Cc1cnc2nc(N)nc(N)c2n1)c1ccc(C(=O)N[C@@H](CCC(=O)O)C(=O)O)cc1`
Response: inactive

Query: Could you check what this test reported for CC(O)COc1ccccc1 (stereo not drawn) ?
Response: inactive

Query: What did this assay record as the result for `O=C1OC2(c3ccccc31)c1cc(I)c(O)c(I)c1Oc1c2cc(I)c(O)c1I` ?
Response: inactive

Query: # lookup: test call for `Cc1ccc(C(=O)c2ccccc2)cc1`
Response: inactive

Query: Outcome? `COc1ccc(C#N)cc1`
Response: inactive

Query: Record request — test call for `NC(C(F)(F)F)C(F)(F)F`
Response: inactive

Query: State the result this test recorded for `CCCCCCCC(OC)OC` .
Response: inactive

Query: Tell me the assay call for `CC(C)[C@@H]1CC[C@@H](C)C[C@H]1O` please.
Response: inactive

Query: Hello, I am checking results. What call was entered for `O=S(=O)(O)C(F)(F)C(F)(F)C(F)(F)C(F)(F)C(F)(F)C(F)(F)C(F)(F)C(F)(F)C(F)(F)C(F)(F)F` ?
Response: inactive

Query: Hi, sorry to bother you, what did the test record for `Cc1ccc(C)c(S(=O)(=O)O)c1` ?
Response: inactive

Query: Test call for this compound, please: C=CC(C)(CCC=C(C)C)OC(C)=O (stereo not drawn)
Response: inactive

Query: GET /call?item= `O=CC(F)(F)C(F)(F)C(F)(F)C(F)F` returns the recorded outcome of this test.
Response: inactive

Query: How was `O=C1OC(=O)c2cc(-c3ccc4c(c3)C(=O)OC4=O)ccc21` classified in this test?
Response: inactive

Query: Check the results log: what was the call for `CCc1ccccc1O` ?
Response: inactive

Query: So what was the verdict on `CC(=O)CC(C)C` in this test?
Response: inactive

Query: Could you check what this test reported for `Cc1cc(Cc2cc(C)cc(C(C)(C)C)c2O)c(O)c(C(C)(C)C)c1` ?
Response: active

Query: For this compound, state the assay outcome: `CC(C)(c1ccc(Oc2ccc(N)cc2)cc1)c1ccc(Oc2ccc(N)cc2)cc1`
Response: inactive

Query: State the result this test recorded for `O=C1c2ccccc2C(=O)c2c(O)c(O)cc(O)c21` .
Response: inactive

Query: So what was the verdict on `COc1cccc(O)c1` in this test?
Response: inactive

Query: Call for entry `CCO[Si](C)(C)OCC` :
Response: inactive

Query: What did the test return for CC1COCc2cc3c(cc21)C(C)(C)C(C)C3(C)C (stereo not drawn) ?
Response: active

Query: Outcome? `CCOC(=O)CN[C@@H](C(=O)N1CC[C@H]1C(=O)NCc1ccc(/C(N)=N/O)cc1)C1CCCCC1`
Response: inactive

Query: Any idea what this test logged for `FC(F)=C(F)C(F)(F)C(F)(F)C(F)(F)C(F)F` ?
Response: inactive

Query: Which outcome was entered for the compound FC(F)(F)C1(F)C(F)(F)C(F)(F)C(F)(F)C(F)(C(F)(F)F)C1(F)F (stereo not drawn) in this test?
Response: inactive

Query: # fetch the recorded call for `Clc1ccc(Nc2nnc(Cc3ccncc3)c3ccccc23)cc1` here
Response: inactive
